What Cmax at 24 h was measured for each of the following?
method_notes: Pharmacokinetics study in Sprague–Dawley rats
Assay type: in vivo
condition_summary: Sprague-Dawley [Crl: CD (SD)], plasma; rat, 5 mg/kg po
Answer with the value and then the unit.

molecule | Cmax at 24 h
COc1cc(N2CCN(CC3CN(c4ccc5c(c4)CN(C4CCC(=O)NC4=O)C5=O)C3)CC2)ccc1Nc1ncc(Cl)c(Nc2ccccc2P(C)(C)=O)n1 (centres unmarked) | 145 ng/mL

// Cmax at 24 h lookup, key: COc1cc(N2CCC(N3CCN(CC4CCN(c5ccc6c(c5)CN(C5CCC(=O)NC5=O)C6=O)CC4)CC3)CC2)ccc1Nc1ncc(Cl)c(Nc2ccccc2P(C)(C)=O)n1 (centres unmarked)
94 ng/mL

----------
What IC50 was measured for each of the following?
Tested on: Ba/F3 CD74-ROS1 non mutant
method_notes: Antiproliferation assay (Alamar Blue, 72 h)
Type: cell-based, mouse
condition_summary: Mus musculus, BaF3, 72 h, Ba/F3 cells, cell growth inhibition
Give bare numbers, in nM.

Below: 3 compounds and their reported IC50.
compound | result_unit | IC50
Cc1cc(Nc2ncc(Cl)c(Nc3ccccc3S(=O)(=O)C(C)C)n2)c(OC(C)C)cc1C1CCN(C2CN(C3CCN(c4ccc5c(c4)C(=O)N(C4CCC(=O)NC4=O)C5=O)CC3)C2)CC1 (centres unmarked) [8p] | nM | 40
COc1cc(N2CCN(C3CCN(CC4CCN(c5ccc6c(c5)C(=O)N(C5CCC(=O)NC5=O)C6=O)CC4)CC3)CC2)ccc1Nc1ncc(Cl)c(Nc2ccccc2P(C)(C)=O)n1 (centres unmarked) [9h] | nM | 21
Cc1cc(Nc2ncc(Cl)c(Nc3ccccc3S(=O)(=O)C(C)C)n2)c(OC(C)C)cc1C1CCN(C2CN(CC3CN(c4ccc5c(c4)C(=O)N(C4CCC(=O)NC4=O)C5=O)C3)C2)CC1 (centres unmarked) [8q] | nM | 66

Batch request: IC50 per item, same order as input.
1. Cc1cc(Nc2ncc(Cl)c(Nc3ccccc3S(=O)(=O)C(C)C)n2)c(OC(C)C)cc1C1CCN(C2CCN(c3cccc4c3C(=O)N(C3CCC(=O)NC3=O)C4=O)CC2)CC1 (centres unmarked) [8c]
2. Cc1cc(Nc2ncc(Cl)c(Nc3ccccc3S(=O)(=O)C(C)C)n2)c(OC(C)C)cc1C1CCN(C2CCN(CCCNc3cccc4c3C(=O)N(C3CCC(=O)NC3=O)C4=O)CC2)CC1 (centres unmarked) [8e]

107
562

----------
tested_target: ROS1 (G2101A) (Homo sapiens, UniProt P08922, G2101A)
Sequence (P08922 28-2347 G2101A): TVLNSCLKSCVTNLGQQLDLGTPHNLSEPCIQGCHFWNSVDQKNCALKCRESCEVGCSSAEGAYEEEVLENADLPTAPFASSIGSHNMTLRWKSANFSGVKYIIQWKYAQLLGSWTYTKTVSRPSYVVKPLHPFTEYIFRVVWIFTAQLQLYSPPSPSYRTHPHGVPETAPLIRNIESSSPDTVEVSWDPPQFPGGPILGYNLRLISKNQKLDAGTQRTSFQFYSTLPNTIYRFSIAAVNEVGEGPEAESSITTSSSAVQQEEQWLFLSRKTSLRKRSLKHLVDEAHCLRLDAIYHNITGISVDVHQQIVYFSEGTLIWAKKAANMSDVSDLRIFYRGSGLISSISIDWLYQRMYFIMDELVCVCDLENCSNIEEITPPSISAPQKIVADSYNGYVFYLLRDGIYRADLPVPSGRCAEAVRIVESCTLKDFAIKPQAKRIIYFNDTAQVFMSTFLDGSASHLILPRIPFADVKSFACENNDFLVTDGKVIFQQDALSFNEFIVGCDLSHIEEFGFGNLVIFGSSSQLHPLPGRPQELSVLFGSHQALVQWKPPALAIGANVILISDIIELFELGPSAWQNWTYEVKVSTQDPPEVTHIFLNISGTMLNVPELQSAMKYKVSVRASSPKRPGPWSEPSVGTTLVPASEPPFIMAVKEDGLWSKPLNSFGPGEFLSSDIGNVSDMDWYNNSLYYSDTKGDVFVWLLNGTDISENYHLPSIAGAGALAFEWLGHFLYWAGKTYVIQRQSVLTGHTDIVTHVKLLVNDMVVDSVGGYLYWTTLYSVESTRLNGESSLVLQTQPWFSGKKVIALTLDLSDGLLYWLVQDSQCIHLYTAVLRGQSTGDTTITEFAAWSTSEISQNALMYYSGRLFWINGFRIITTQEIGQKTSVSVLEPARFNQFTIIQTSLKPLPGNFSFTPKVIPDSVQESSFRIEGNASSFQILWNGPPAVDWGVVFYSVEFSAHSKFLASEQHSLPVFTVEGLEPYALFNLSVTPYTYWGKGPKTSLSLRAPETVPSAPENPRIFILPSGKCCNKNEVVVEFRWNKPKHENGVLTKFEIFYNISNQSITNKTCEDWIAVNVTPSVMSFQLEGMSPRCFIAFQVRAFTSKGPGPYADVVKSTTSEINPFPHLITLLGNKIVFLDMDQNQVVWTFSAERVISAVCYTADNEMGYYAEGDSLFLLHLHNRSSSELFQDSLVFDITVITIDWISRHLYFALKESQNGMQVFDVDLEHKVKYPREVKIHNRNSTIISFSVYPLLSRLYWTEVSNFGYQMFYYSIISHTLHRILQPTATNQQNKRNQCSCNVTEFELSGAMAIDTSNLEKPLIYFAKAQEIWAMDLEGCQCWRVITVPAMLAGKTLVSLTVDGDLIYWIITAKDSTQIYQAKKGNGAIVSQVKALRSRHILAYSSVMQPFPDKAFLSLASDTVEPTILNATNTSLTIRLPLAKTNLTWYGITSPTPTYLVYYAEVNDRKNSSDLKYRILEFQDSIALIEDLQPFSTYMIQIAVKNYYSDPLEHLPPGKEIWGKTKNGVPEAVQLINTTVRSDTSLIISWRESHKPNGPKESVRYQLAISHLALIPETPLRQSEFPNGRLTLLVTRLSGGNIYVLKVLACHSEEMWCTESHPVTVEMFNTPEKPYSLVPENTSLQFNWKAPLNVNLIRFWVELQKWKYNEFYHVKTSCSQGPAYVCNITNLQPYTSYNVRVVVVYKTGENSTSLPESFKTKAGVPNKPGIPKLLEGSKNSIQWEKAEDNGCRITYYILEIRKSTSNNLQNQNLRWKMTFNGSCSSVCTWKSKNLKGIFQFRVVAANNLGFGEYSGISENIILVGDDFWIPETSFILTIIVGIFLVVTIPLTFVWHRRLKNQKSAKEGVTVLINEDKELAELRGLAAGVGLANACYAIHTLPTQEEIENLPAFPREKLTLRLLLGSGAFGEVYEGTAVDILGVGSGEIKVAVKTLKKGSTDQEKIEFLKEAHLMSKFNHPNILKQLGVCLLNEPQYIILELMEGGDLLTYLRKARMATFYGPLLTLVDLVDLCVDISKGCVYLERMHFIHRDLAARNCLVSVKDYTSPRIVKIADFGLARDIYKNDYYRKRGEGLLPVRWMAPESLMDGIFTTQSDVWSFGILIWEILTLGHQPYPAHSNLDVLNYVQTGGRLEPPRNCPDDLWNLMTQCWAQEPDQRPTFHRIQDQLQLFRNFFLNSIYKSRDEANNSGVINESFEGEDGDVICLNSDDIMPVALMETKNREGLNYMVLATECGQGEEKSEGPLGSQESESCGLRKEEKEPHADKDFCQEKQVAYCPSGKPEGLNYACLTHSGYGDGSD
method_notes: Kinase assay
condition_summary: average of duplicate measurements
observed_property: IC50 (nM)
Answers are plain numbers, in nM.

// IC50 lookup, key: COc1cc(N2CCC(N3CCN(CC4CCN(c5ccc6c(c5)CN(C5CCC(=O)NC5=O)C6=O)CC4)CC3)CC2)ccc1Nc1ncc(Cl)c(Nc2ccccc2P(C)(C)=O)n1 (stereo not shown)
10.9

----------
System: Ba/F3 CD74-ROS1 non mutant
method_notes: Antiproliferation assay (Alamar Blue, 72 h)
Format: cell-based, mouse
condition_summary: Mus musculus, BaF3, 72 h, Ba/F3 cells, cell growth inhibition
Consider the following partition of reported IC50 into named classes: lower bin (below 70 nM), middle bin (70 nM to below 200 nM), upper bin (200 nM or more)

Known results for compounds:
compound | tested_target | group_label
COc1cc(N2CCC(N3CCN(C(=O)C4CCN(c5ccc(NC6CCC(=O)NC6=O)cc5)CC4)CC3)CC2)ccc1Nc1ncc(Cl)c(Nc2ccccc2P(C)(C)=O)n1 (stereo not shown) | Ba/F3 CD74-ROS1 non mutant | lower bin
C[C@@H](Oc1cc(-c2cnn(C3CCN(CC4CCN(CC5CCN(c6ccc7c(c6)C(=O)N(C6CCC(=O)NC6=O)C7=O)CC5)CC4)CC3)c2)cnc1N)c1c(Cl)ccc(F)c1Cl (stereo partly shown) | Ba/F3 CD74-ROS1 non mutant | upper bin
Cc1cc(Nc2ncc(Cl)c(Nc3ccccc3S(=O)(=O)C(C)C)n2)c(OC(C)C)cc1C1CCN(C2CCN(C3CN(c4ccc5c(c4)C(=O)N(C4CCC(=O)NC4=O)C5=O)C3)CC2)CC1 (stereo not shown) | Ba/F3 CD74-ROS1 non mutant | lower bin

Please report the category associated with COc1cc(N2CCC(N3CCN(CC4CCN(c5ccc(C(=O)NC6CCC(=O)NC6=O)cc5)CC4)CC3)CC2)ccc1Nc1ncc(Cl)c(Nc2ccccc2P(C)(C)=O)n1 (stereo not shown) , nothing else.
middle bin

Please report the category associated with C[C@@H](Oc1cc(-c2cnn(C3CCN(CCC4CCN(c5ccc6c(c5)C(=O)N(C5CCC(=O)NC5=O)C6=O)CC4)CC3)c2)cnc1N)c1c(Cl)ccc(F)c1Cl (stereo partly shown) , nothing else.
upper bin

Please report the category associated with Cc1cc(Nc2ncc(Cl)c(Nc3ccccc3S(=O)(=O)C(C)C)n2)c(OC(C)C)cc1C1CCN(CCCNc2cccc3c2C(=O)N(C2CCC(=O)NC2=O)C3=O)CC1 (stereo not shown) , nothing else.
middle bin

Please report the category associated with COc1cc(N2CCC(N3CCN(CCC4CCN(c5ccc(NC6CCC(=O)NC6=O)cc5)CC4)CC3)CC2)ccc1Nc1ncc(Cl)c(Nc2ccccc2P(C)(C)=O)n1 (stereo not shown) , nothing else.
lower bin

Please report the category associated with Cc1cc(Nc2ncc(Cl)c(Nc3ccccc3S(=O)(=O)C(C)C)n2)c(OC(C)C)cc1C1CCN(C2CCN(C3CCN(c4ccc5c(c4)C(=O)N(C4CCC(=O)NC4=O)C5=O)CC3)CC2)CC1 (stereo not shown) , nothing else.
middle bin

Please report the category associated with C[C@@H](Oc1cc(-c2cnn(C3CCN(CC4CCN(c5cccc6c5C(=O)N(C5CCC(=O)NC5=O)C6=O)CC4)CC3)c2)cnc1N)c1c(Cl)ccc(F)c1Cl (stereo partly shown) , nothing else.
upper bin

Please report the category associated with C[C@@H](Oc1cc(-c2cnn(C3CCN(CC4CCN(c5ccc6c(c5)C(=O)N(C5CCC(=O)NC5=O)C6=O)CC4)CC3)c2)cnc1N)c1c(Cl)ccc(F)c1Cl (stereo partly shown) , nothing else.
lower bin

----------
Test system: ROS1
method_notes: ROS1 degradation in Ba/F3 cells (WES immunoblotting)
Assay type: cell-based
condition_summary: concentration needed to reduce ROS1 protein by 50%, Ba/F3 cells
Protocol: Protein levels were analyzed using a WES instrument according to the WES User Guide from ProteinSimple in duplicate experiments. The samples were mixed with the fluorescent 5 master mix (ProteinSimple) and then heated at 95 °C for 5 min. […] Protein levels are expressed as the AUC of the peak chemiluminescence intensity. […]
What DC50 was measured for each of the following?
Give bare numbers, in nM.

molecule | result_unit | DC50
COc1cc(N2CCC(N3CCN(CC4CCN(c5ccc(C(=O)NC6CCC(=O)NC6=O)cc5)CC4)CC3)CC2)ccc1Nc1ncc(Cl)c(Nc2ccccc2P(C)(C)=O)n1 (centres unmarked) [9r] | nM | 123
Cc1cc(Nc2ncc(Cl)c(Nc3ccccc3S(=O)(=O)C(C)C)n2)c(OC(C)C)cc1C1CCN(C2CN(CC3CCN(c4ccc5c(c4)C(=O)N(C4CCC(=O)NC4=O)C5=O)CC3)C2)CC1 (centres unmarked) [8r] | nM | 77
COc1cc(N2CCC(N3CCN(C(=O)CC4CCN(c5ccc(NC6CCC(=O)NC6=O)cc5)CC4)CC3)CC2)ccc1Nc1ncc(Cl)c(Nc2ccccc2P(C)(C)=O)n1 (centres unmarked) [9u] | nM | 101

Proceeding to the next molecule to report its DC50.
// DC50 lookup, key: Cc1cc(Nc2ncc(Cl)c(Nc3ccccc3S(=O)(=O)C(C)C)n2)c(OC(C)C)cc1C1CCN(CCNc2cccc3c2C(=O)N(C2CCC(=O)NC2=O)C3=O)CC1 (centres unmarked) [8a]
225

----------
method_notes: Metabolic stability in human microsomes
Type: in vitro ADME
condition_summary: human, pooled human microsomes, pH 7.4; 250 nM compound, NADPH, 37 °C
What microsomal CLint at 1 h, 0.25 µM was measured for each of the following?
Give bare numbers, in µL/min/mg.

compound | microsomal CLint at 1 h, 0.25 µM / µL/min/mg
COc1cc(N2CCC(N3CCN(CC4CCN(c5ccc6c(c5)C(=O)N(C5CCC(=O)NC5=O)C6=O)CC4)CC3)CC2)ccc1Nc1ncc(Cl)c(Nc2ccccc2P(C)(C)=O)n1 (centres unmarked) | 63.4
COc1cc(N2CCN(CC3CN(c4ccc5c(c4)CN(C4CCC(=O)NC4=O)C5=O)C3)CC2)ccc1Nc1ncc(Cl)c(Nc2ccccc2P(C)(C)=O)n1 (centres unmarked) | 94.5
COc1cc(N2CCN(CC3CCN(c4ccc5c(c4)C(=O)N(C4CCC(=O)NC4=O)C5=O)CC3)CC2)ccc1Nc1ncc(Cl)c(Nc2ccccc2P(C)(C)=O)n1 (centres unmarked) | 87
COc1cc(N2CCC(N3CCN(CC4CCN(c5ccc6c(c5)CN(C5CCC(=O)NC5=O)C6=O)CC4)CC3)CC2)ccc1Nc1ncc(Cl)c(Nc2ccccc2P(C)(C)=O)n1 (centres unmarked) | 71.1

Proceeding to the next compound to report its microsomal CLint at 1 h, 0.25 µM.
// microsomal CLint at 1 h, 0.25 µM lookup, key: COc1cc(N2CCC(N3CCN(CC4CN(c5ccc6c(c5)C(=O)N(C5CCC(=O)NC5=O)C6=O)C4)CC3)CC2)ccc1Nc1ncc(Cl)c(Nc2ccccc2P(C)(C)=O)n1 (centres unmarked)
57
